The measurements presented in this section are drawn from ChEMBL document CHEMBL5370603.

Target: Histone deacetylase 1 (Homo sapiens)
Sequence (Q13547 whole entry): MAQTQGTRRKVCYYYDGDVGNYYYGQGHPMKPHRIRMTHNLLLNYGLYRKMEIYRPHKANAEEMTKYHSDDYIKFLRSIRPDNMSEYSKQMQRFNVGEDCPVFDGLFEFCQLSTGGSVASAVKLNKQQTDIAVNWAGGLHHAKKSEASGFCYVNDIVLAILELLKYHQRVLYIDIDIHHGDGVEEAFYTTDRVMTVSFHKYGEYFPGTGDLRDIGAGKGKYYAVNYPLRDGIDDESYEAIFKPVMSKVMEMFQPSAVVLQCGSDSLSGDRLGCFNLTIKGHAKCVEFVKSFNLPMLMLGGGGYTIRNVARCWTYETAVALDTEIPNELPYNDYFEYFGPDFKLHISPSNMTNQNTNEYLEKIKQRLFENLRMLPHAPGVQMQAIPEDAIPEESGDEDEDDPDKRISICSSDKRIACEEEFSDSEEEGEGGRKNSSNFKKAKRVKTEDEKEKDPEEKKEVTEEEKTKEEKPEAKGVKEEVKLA
Assay: Inhibition of human recombinant HDAC1 using Ac-Leu-Gly-Lys(Ac)-AMC as substrate preincubated with enzyme for 30 mins followed by substrate addition and measured after 90 mins by fluorescence based analysis
pIC50: −log10 of the molar value.
OBSERVED_PROPERTY: pIC50

SMILES_ENTRY | RECORDED_VALUE
Nc1ccccc1NC(=O)c1ccc(COc2ccc(CN3C(=O)CC[C@H]3CC(=O)NCc3ccccc3)cc2)cc1 | 7.08
Nc1ccccc1NC(=O)c1ccc(COc2ccc(CNC(=O)[C@H]3CCC(=O)N3Cc3ccccc3)cc2)cc1 | 7.04
Nc1ccccc1NC(=O)c1ccc(COc2ccc(CNC(=O)[C@H]3CCCN3Cc3ccccc3)cc2)cc1 | 7.03
